- Measured on: human lipin 1γ (Homo sapiens)
- Construct: His6 (C)
- Measurement description: PAP assay, human lipin 1γ
- Condition parameters: unphosphorylated, from E. coli; PA 2.4 mol %

- Molecule: "CN[C@H]1CC[C@@H](c2ccc(Cl)c(Cl)c2)c2ccccc21 [sertraline]"
  IC50 [µM]: 143
- Molecule: "CC(C)NCC(O)COc1cccc2ccccc12 (centres unmarked) [propranolol]"
  IC50 [µM]: 227

---

- Measured on: human lipin 1α (Homo sapiens, UniProt Q14693)
- Construct: His6 (C)
- Sequence (Q14693 1-890): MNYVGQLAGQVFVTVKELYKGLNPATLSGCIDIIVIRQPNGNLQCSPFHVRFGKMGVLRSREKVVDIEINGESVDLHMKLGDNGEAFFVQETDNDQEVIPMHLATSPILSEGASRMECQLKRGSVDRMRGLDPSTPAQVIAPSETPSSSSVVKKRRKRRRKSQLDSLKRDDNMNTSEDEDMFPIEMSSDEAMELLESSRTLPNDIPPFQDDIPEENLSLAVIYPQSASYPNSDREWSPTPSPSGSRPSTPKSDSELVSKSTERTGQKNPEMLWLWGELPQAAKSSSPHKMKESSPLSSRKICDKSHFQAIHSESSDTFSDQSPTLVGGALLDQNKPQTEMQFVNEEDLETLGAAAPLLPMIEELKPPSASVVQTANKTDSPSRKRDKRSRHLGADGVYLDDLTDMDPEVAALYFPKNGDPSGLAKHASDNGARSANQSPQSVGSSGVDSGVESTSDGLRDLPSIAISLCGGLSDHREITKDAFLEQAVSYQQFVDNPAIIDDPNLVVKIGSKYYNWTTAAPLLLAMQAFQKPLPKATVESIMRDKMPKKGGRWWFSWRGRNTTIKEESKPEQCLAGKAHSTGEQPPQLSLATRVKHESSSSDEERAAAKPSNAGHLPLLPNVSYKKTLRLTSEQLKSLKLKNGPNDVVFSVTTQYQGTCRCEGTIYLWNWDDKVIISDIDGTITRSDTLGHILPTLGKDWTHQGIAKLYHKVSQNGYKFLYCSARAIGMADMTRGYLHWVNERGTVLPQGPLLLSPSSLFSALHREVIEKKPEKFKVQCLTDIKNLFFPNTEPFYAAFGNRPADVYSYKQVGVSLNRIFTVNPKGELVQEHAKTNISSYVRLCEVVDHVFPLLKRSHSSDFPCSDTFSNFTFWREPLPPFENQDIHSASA
- Measurement description: PAP assay, human lipin 1α
- Condition parameters: unphosphorylated, from E. coli; PA 2.4 mol %
Result type: IC50 (µM)

- Compound: "CC(C)NCC(O)COc1cccc2ccccc12 (centres unmarked) [propranolol]"
  Measured: 226
- Compound: "CN[C@H]1CC[C@@H](c2ccc(Cl)c(Cl)c2)c2ccccc21 [sertraline]"
  Measured: 103

---

A collection of molecules and their measured pIC50
- Measured on: human lipin 1β (Homo sapiens, UniProt Q14693)
- Construct: His6 (C)
- Measurement description: PAP assay, human lipin 1β
- Condition parameters: unphosphorylated, from E. coli; PA 2.4 mol %
pIC50: −log10 of the molar value.
Result type: pIC50

- Molecule: "CN[C@H]1CC[C@@H](c2ccc(Cl)c(Cl)c2)c2ccccc21"
  Measured on: "human lipin 1β (Homo sapiens, UniProt Q14693)"
  Result type: "pIC50"
  Measured: 3.97
- Molecule: "CC(C)NCC(O)COc1cccc2ccccc12 (centres unmarked)"
  Measured on: "human lipin 1β (Homo sapiens, UniProt Q14693)"
  Result type: "pIC50"
  Measured: 3.57
